Provenance of the data: PubChem BioAssay

# test-summary: differential killing of epithelial or mesenchymal cells, primary screen, imaging, PC-3E GFP, TEM4-18 mCherry, co-culture (AID 1345086);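 note: cells exposed to compound for 72 h before imaging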
# stated-conditions: imaging cell counts, measured here: mesenchymal TEM4-18 mCherry cell survival, at 1 µM
Please use TRUE whenever normalised cell number is not below 1, and FALSE whenever it is.

{"compound": "CC(C)(C)NCC(O)COc1cccc2c1C[C@H](O)[C@H](O)C2 (stereo partly drawn)", "cat": "TRUE"}
{"compound": "CN(C)c1ccc(O)c2c1C[C@H]1C[C@H]3[C@H](N(C)C)C(=O)C(C(N)=O)=C(O)[C@@]3(O)C(=O)C1=C2O", "cat": "TRUE"}
{"compound": "CCc1cc(C(N)=S)ccn1", "cat": "FALSE"}
{"compound": "CC(=O)CCCCn1c(=O)c2c(ncn2C)n(C)c1=O", "cat": "TRUE"}
{"compound": "CC1=C(CC(=O)O)c2cc(F)ccc2/C1=C\\c1ccc(S(C)=O)cc1 (stereo not drawn)", "cat": "FALSE"}
{"compound": "NS(=O)(=O)c1cc(C2(O)NC(=O)c3ccccc32)ccc1Cl (stereo not drawn)", "cat": "TRUE"}
{"compound": "CN1CCCC(n2nc(Cc3ccc(Cl)cc3)c3ccccc3c2=O)CC1 (stereo not drawn)", "cat": "TRUE"}
{"compound": "Cc1ccc(S(=O)(=O)NC(=O)NN2CCCCCC2)cc1", "cat": "TRUE"}
{"compound": "COc1ccccc1OCC(O)COC(N)=O (stereo not drawn)", "cat": "TRUE"}
{"compound": "N[C@@H]1CONC1=O", "cat": "TRUE"}
{"compound": "OCCN1CCN(CCCN2c3ccccc3Sc3ccc(Cl)cc32)CC1", "cat": "TRUE"}
{"compound": "Cc1onc(-c2c(Cl)cccc2Cl)c1C(=O)N[C@@H]1C(=O)N2[C@@H]1SC(C)(C)[C@@H]2C(=O)O", "cat": "TRUE"}
